Entry source: PubChem BioAssay (EPA / NIEHS)

TARGET: Estrogen receptor (Homo sapiens)
ASSAY DETAILS: OT_ER_ERaERa_1440: Odyssey Thera (OT) 24-hour HEK293T Protein-Complementation Assay for Estrogen Receptor-alpha/-alpha Homodimer (AID 2283349);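 further: hits raise fluorescence above DMSO for agonists and antagonists alike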
Activity calls are given as the source filed them. How the source made its calls: active means hit-call score of the fitted dose curve at least 0.9, where 1 is the maximum; inconclusive means response in the unintended direction; inactive means score below 0.9.
Labels: t (active), f (inactive)

>>> print(df.to_string())
                                   compound  assigned_class
0  COc1cc(C(=O)NC2CCN(C)CC2)ccc1Nc1ncc2c(n1)N(C1CCCC1)CC(F)(F)C(=O)N2C               t
1  COCC(C)OCC(C)OCC(C)O (stereo unspecified)               f
2  CCOC(=O)O[C@H](C)OC(=O)c1ccc2c(c1)cc(C(=O)NC1CCN(C(C)C)CC1)n2Cc1cc(-c2ccc(Cl)s2)on1               f
3  CN(C[C@@H](CC[N+]12CCC(C3CCCCC3)(CC1)CC2)c1ccc(Cl)c(Cl)c1)C(=O)c1cc(C(F)(F)F)cc(C(F)(F)F)c1               f
4  CC(C)(O)c1ccc(CNC(=O)c2cccnc2Oc2ccc3nonc3c2)cc1               f
5  COc1ccc2cc(S(=O)(=O)N[C@H](CC(=O)N[C@H](Cc3ccc(CN4[C@H](C)CCC[C@@H]4C)cc3)C(=O)N(C)C(C)C)c3ccc4c(c3)OCO4)ccc2c1               f

---

ASSAY DETAILS: ATG_PBREM_CIS: Attagene CIS-FACTORIAL HepG2 Assay for human Phenobarbital-responsive Enhancer Module (PBREM) (AID 2282955)
RUN PARAMETERS: HepG2 PBREM cis-reporter, Attagene multiplexed transcription; actives raise or lower the signal
Activity calls are given as the source filed them. How the source made its calls: active means hit-call score of the fitted dose curve at least 0.9, where 1 is the maximum; inactive means score below 0.9.
READOUT LABEL: AC50

In [3]: df
Out[3]:
                           smiles_structure    value_observed
0                CCCOC(=O)c1cc(O)c(O)c(O)c1          inactive
1       O=C(Nc1ccc(Cl)cc1)Nc1ccc(Cl)c(Cl)c1          inactive
2                              CCCCCCCCCCCO          inactive
3                          CCCCCc1ccc(N)cc1          inactive
4    Clc1ccccc1C(c1ccccc1)(c1ccccc1)n1ccnc1  11.1 µM (active)
5  CCOC(=O)O[C@H](C)OC(=O)c1ccc2c(c1)cc(C(=O)NC1CCN(C(C)C)CC1)n2Cc1cc(-c2ccc(Cl)s2)on1          inactive

---

TARGET: human Beta-secretase (BACE), BACE1 (gene 23621) (UniProt P56817)
Sequence (P56817 whole entry, looked up): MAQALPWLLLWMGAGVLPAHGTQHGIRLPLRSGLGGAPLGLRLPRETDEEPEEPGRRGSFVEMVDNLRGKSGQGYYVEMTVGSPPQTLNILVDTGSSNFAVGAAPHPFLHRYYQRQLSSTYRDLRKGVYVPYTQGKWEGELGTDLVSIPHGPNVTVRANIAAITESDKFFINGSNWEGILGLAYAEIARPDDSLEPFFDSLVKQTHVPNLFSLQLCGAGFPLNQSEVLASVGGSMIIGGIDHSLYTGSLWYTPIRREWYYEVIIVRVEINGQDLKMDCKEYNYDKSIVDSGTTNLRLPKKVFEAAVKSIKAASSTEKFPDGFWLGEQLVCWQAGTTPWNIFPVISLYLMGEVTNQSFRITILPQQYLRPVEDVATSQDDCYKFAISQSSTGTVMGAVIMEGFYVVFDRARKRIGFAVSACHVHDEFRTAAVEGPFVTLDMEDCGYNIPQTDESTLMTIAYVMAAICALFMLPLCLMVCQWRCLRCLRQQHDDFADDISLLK
ASSAY DETAILS: NVS_ENZ_hBACE: NovaScreen (NVS) Enzymatic Assay for human Beta-secretase (BACE) (AID 2283140);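 further: hits are inhibitors that reduce fluorescent substrate signal versus DMSO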
Results filed as inconclusive are left out. The source made the active and inactive calls. How the source made its calls: active means hit-call score of the fitted dose curve at least 0.9, where 1 is the maximum; inconclusive means response in the unintended direction; inactive means score below 0.9.
Labels: class 1 (active), class 0 (inactive)

                           smiles_structure  assigned_class
0  CCN(Cc1cccc(S(=O)(=O)O)c1)c1ccc(C(=C2C=CC(=[N+](CC)Cc3cccc(S(=O)(=O)O)c3)C=C2)c2ccccc2S(=O)(=O)[O-])cc1         class 1
1  CN(C[C@@H](CC[N+]12CCC(C3CCCCC3)(CC1)CC2)c1ccc(Cl)c(Cl)c1)C(=O)c1cc(C(F)(F)F)cc(C(F)(F)F)c1         class 1
2                          Cc1ccc(C(C)C)cc1         class 0
3       O=C(Nc1ccc(Cl)cc1)Nc1ccc(Cl)c(Cl)c1         class 1
4  NCc1cccc(C2CCN(C(=O)c3ccc(C#Cc4ccccc4F)o3)CC2)c1         class 1
5  COc1ccc2cc(S(=O)(=O)N[C@H](CC(=O)N[C@H](Cc3ccc(CN4[C@H](C)CCC[C@@H]4C)cc3)C(=O)N(C)C(C)C)c3ccc4c(c3)OCO4)ccc2c1         class 0

---

ASSAY DETAILS: STM_H9_CystineISnorm_perc: Stemina devTOX quickPredict H9 human embryonic stem cell (hESC)-based Assay for Cystine (CYSS) Metabolite Biomarker, Normalized (AID 2283713)
Active and inactive are the calls of the source. How the source made its calls: active means hit-call score of the fitted dose curve at least 0.9, where 1 is the maximum; inactive means score below 0.9.
Labels: active, inactive

SMILES STRUCTURE	ASSIGNED CLASS
CC(C)(c1cc(Br)c(O)c(Br)c1)c1cc(Br)c(O)c(Br)c1	inactive
CN(C)c1ccc(C(=C2C=CC(=[N+](C)C)C=C2)c2ccc(N(C)C)cc2)cc1	active
CO[C@H]1/C=C/O[C@@]2(C)Oc3c(C)c(O)c4c(O)c(c(/C=N/N5CCN(C)CC5)c(O)c4c3C2=O)NC(=O)/C(C)=C\C=C\[C@H](C)[C@H](O)[C@@H](C)[C@@H](O)[C@@H](C)[C@H](OC(C)=O)[C@@H]1C	active
CCCCOC(=O)c1ccc(O)cc1	inactive

---

Read-out: Glutamate-cysteine ligase regulatory (GCLM), GCLM (gene 2730)
ASSAY DETAILS: LTEA_HepaRG_GCLM: Life Technologies and Expression Analysis (LTEA) Assay for Glutamate-cysteine ligase regulatory (GCLM) using HepaRG (AID 2283500)
RUN PARAMETERS: mRNA level, 48 h; actives raise or lower the signal
Activity calls are given as the source filed them. The calls were made as follows: active = hit-call score of the fitted dose curve at least 0.9, where 1 is the maximum; inactive = score below 0.9.
Labels: active, inactive

In [3]: df
Out[3]:
                           smiles_structure  assigned_class
0                      CCCCCCCCN(C)CCCCCCCC        inactive
1                          O=C=NCCCCCCN=C=O        inactive
2  CC(=O)N1CCN(c2ccc(OC[C@H]3CO[C@](Cn4ccnc4)(c4ccc(Cl)cc4Cl)O3)cc2)CC1          active
3  CCN(Cc1cccc(S(=O)(=O)O)c1)c1ccc(C(=C2C=CC(=[N+](CC)Cc3cccc(S(=O)(=O)O)c3)C=C2)c2ccccc2S(=O)(=O)[O-])cc1        inactive
4       O=C(Nc1ccc(Cl)cc1)Nc1ccc(Cl)c(Cl)c1        inactive

---

ASSAY DETAILS: ATG_Sox_CIS: Attagene CIS-FACTORIAL HepG2 Assay for human SRY-box transcription factor (SOX) (AID 2282960)
RUN PARAMETERS: HepG2 Attagene cis-factorial SOX reporter, mRNA; actives raise or lower the signal
The source made the active and inactive calls. How the source made its calls: active means hit-call score of the fitted dose curve at least 0.9, where 1 is the maximum; inactive means score below 0.9.
Labels: active, inactive

COMPOUND	ASSIGNED CLASS
COc1cc(C(=O)NC2CCN(C)CC2)ccc1Nc1ncc2c(n1)N(C1CCCC1)CC(F)(F)C(=O)N2C	inactive
CC(O)CC(C)(C)O (stereo unspecified)	inactive
O=C(O)Cn1c(=O)n(Cc2ccc(Br)cc2F)c(=O)c2ccc(Cl)cc21	inactive
C[C@]12CC[C@@H]3c4ccc(O)cc4CC[C@H]3[C@@H]1CCC2=O	inactive
O=C(O)Cc1cc(I)c(Oc2ccc(O)c(I)c2)c(I)c1	inactive
CN(C)C(=O)C1(N2CCCCC2)CCN(CC[C@@]2(c3ccc(Cl)c(Cl)c3)CN(C(=O)c3ccccc3)CCO2)CC1	inactive
OCCO	inactive
O=CCCCC=O	inactive
Cc1occc1C(=O)Nc1ccc(C(=O)N2CCC(F)(F)/C(=C\C(=O)N3CCC(N4CCCCC4)CC3)c3ccccc32)cc1	active
Clc1ccccc1C(c1ccccc1)(c1ccccc1)n1ccnc1	active
CO[C@H]1/C=C/O[C@@]2(C)Oc3c(C)c(O)c4c(O)c(c(/C=N/N5CCN(C)CC5)c(O)c4c3C2=O)NC(=O)/C(C)=C\C=C\[C@H](C)[C@H](O)[C@@H](C)[C@@H](O)[C@@H](C)[C@H](OC(C)=O)[C@@H]1C	inactive

---

ASSAY DETAILS: APR_HepG2_MitoMembPot_24hr: Apredica 24-hour HepG2 Assay for Mitochondrial Membrane Potential (AID 2282911)
RUN PARAMETERS: imaging, actives raise or lower the signal
Procedure: APR_HepG2_24hr is a cell-based, multiplexed-readout assay that uses HepG2, a human liver cell line, with measurements taken at 24 hours after chemical dosing in a 384-well plate.APR_HepG2_MitoMembPot_24hr is one of 10 assay component(s) measured or calculated from the APR_HepG2_24hr assay. […] This assay endpoint, APR_HepG2_MitoMembPot_24hr, was analyzed with bidirectional fitting relative to DMSO as the negative control and baseline of activity. […]
Active and inactive are the calls of the source. Rule for the calls: active = hit-call score of the fitted dose curve at least 0.9, where 1 is the maximum; inactive = score below 0.9.
Labels: y = active, n = inactive

>>> df
                           smiles_structure  assigned_class
0                        Cc1ncc(CO)c(CO)c1O               n
1  Cc1occc1C(=O)Nc1ccc(C(=O)N2CCC(F)(F)/C(=C\C(=O)N3CCC(N4CCCCC4)CC3)c3ccccc32)cc1               n
2                           Cc1cccc2ccccc12               n
3  CC[C@@H]1C[C@H](N(Cc2cc(C(F)(F)F)cc(C(F)(F)F)c2)C(C)=O)c2cc(C(F)(F)F)ccc2N1C(=O)OC(C)C               y
4  C[C@]12CC[C@@H]3c4ccc(O)cc4CC[C@H]3[C@@H]1CCC2=O               n
